Biological target: T1, human G-protein-coupled receptor family C group 5 member D (GPRC5D) (human, UniProt Q9NZD1 1-345)
T1 construct: whole, on cells; also called human GPRC5D protein
T1 sequence (Q9NZD1 whole entry): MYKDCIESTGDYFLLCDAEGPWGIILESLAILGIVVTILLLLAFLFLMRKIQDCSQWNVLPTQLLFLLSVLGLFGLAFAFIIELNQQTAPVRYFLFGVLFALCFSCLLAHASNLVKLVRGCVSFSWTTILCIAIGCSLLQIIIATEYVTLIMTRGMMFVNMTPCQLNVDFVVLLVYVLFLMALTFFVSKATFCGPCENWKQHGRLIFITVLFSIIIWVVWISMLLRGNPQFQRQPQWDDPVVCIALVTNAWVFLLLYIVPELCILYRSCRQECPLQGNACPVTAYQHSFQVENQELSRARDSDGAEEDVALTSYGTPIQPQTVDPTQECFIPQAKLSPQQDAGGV
Assay: FACS, CHO-K1/GPRC5D
Observable: Span
// no unit string in output, number only

Observe how each entry below is paired with its result.
Binder	Span
58-H3L1 (antibody, V domains shown, humanized 58F9G10, VH v3 x VL v1) VH: QVQLVQSGAEVKKPGASVKVSCKASGYSFTGYYIHWVKQAPGQGLEWIGYISSYNAATSFNQKFKGRVTFTVDTSTSTVYMEFSSLRSEDTAVYYCARTELRGPWFAYWGQGTLVTVSS VL: DIQMTQSPSSLSASVGDRVTITCSASSSVSYMNWYQQKPGKAPKLLIYDTSKLASGVPSRFSGSGSGTDFTLTISSLQPEDFATYYCQQWSNNPLTFGQGTKLEIK	93800
58-H4L3 (antibody, V domains shown, humanized 58F9G10, VH v4 x VL v3) VH: QVQLVQSGAEVKKPGASVKISCKASGYSFTGYYIHWVKQAPGQGLEWIGYISSYNAATSFNQKFKGRATFTVDTSTSTAYMEFSSLRSEDSAVYYCARTELRGPWFAYWGQGTLVTVSS VL: DTQLTQSPSSLSASVGDRVTMTCSASSSVSYMNWYQQKPGKAPKRLIYDTSKLASGVPSRFSGSGSGTDYTLTISSMQPEDFATYYCQQWSNNPLTFGQGTKLEIK	96400

## Input Query Span for 58F9G10-XI (antibody, V domains shown, also called 58F9G10 (chimeric); 58-XI) VH: EVQLQQSGPELVKTGASVKISCKASGYSFTGYYIHWVKQSHGKSLEWIGYISCYNGATSFNQKFKGKATFTVDTSSSTAYMQFNSLTSEDSAVYYCARTELRGPWFAYWGQGTLVTVSA VL: QTVLTQSPAIMSASPGEKVTMTCSASSSVSYMNWYQQKSGTSPKRWIYDTSKLASGVPARFSGSGSGTSYSLTISSMEAEDAATYYCQQWSNNPLTFGAGTKLELK
## Output 121000

Hello, the source for this data is patent US12281162, in case you need it.
